Molecular target: human A2B receptor (Homo sapiens, UniProt P29275)
Sequence (P29275 whole entry): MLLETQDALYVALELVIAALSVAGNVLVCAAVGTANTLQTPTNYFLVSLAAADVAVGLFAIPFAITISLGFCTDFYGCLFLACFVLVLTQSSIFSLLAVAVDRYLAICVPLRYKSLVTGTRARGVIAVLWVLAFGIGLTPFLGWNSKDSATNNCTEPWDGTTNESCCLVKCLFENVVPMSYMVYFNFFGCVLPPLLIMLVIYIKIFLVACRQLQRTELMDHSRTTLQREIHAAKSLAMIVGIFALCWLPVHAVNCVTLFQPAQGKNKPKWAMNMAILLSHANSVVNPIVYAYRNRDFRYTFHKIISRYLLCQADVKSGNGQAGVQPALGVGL
measurement-kind: pKi
Answers are plain numbers, as −log10 of the molar value.

Which pKi value belongs to COc1nc(-c2ccncc2)c(-c2ccco2)nc1N ?
8.05
